- experimental_target: T1, Mcl-1, Q07820
- T1 chain: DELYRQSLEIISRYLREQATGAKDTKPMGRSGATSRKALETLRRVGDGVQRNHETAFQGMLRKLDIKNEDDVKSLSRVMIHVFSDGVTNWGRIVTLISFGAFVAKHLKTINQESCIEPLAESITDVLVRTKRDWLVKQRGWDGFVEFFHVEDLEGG
- experiment_notes: peptide SPOT array, c-Myc-tagged receptor at 1 uM or 100 nM, anti-c-Myc-Cy3
measured_quantity: SPOT signal as a fraction of Bim BH3's signal on the same receptor and array

LALMMQLARELKTLLRDLGMAVVVTN [RAD51L3]	0.1

1 = ISDVQVFGYSLRFNLDLLRSAVQQVN [DBC1]
2 = VLAPVQLGKWDVLFCDEINLPDMDKY [DYNC1H1]
Compare reported SPOT signal as a fraction of Bim BH3's signal on the same receptor and array values for 1 and 2 . Which is lower? Lab log: write the label of the selected item as the result.
1
(1: 0.02, 2: 0.05)

1 = VPARAPAVDLLEEAADLLVVHLDFRA [PEX26]
2 = KLPVVGIGKHLCGMATDLALRCLVET [CCDC76]
Among 1 and 2 , whose measured SPOT signal as a fraction of Bim BH3's signal on the same receptor and array is the smaller figure? Record your answer as the label of the chosen record.
1

P = NKTMTQLSSTLARCLKDILGFAVMFF [PKD2L1]
Q = FSSDAVTSRVLLNVGQEVIAVVEENK [MOV10L1]
Please compare: P and Q . Report which one has the smaller SPOT signal as a fraction of Bim BH3's signal on the same receptor and array value. Please indicate the selected item by its label.
Q
(Q: 0.02, P: 0.12)

All values here come from paper PMC4072508.
